All values here come from patent US11866451B2.

assay_details: Solubility measurement in various solvents at 25° C. (Procedure 1)
Type: physicochemical
condition_parameters: DMF, organic solvent or mixture, thermodynamic from solid
quantity: solubility

What value of solubility has been reported for the following compound? Cl.Cl.Cn1c(C(=O)Nc2cccc(-c3cccc(NC(=O)c4nc5c(n4C)CCN(CCC46CCC(C(=O)O)(CC4)C6)C5)c3Cl)c2Cl)nc2c1CCN(CCC13CCC(C(=O)O)(CC1)C3)C2
2980 µg/mL

* * *

assay_details: Solubility measurement in various solvents at 25° C. (Procedure 1)
Type: physicochemical
condition_parameters: 5% water in acetonitrile, organic solvent or mixture, thermodynamic from solid
quantity: solubility
The answer consists of two parts: a number and, after it, its unit.

What value of solubility has been reported for the following compound? Cl.Cl.Cn1c(C(=O)Nc2cccc(-c3cccc(NC(=O)c4nc5c(n4C)CCN(CCC46CCC(C(=O)O)(CC4)C6)C5)c3Cl)c2Cl)nc2c1CCN(CCC13CCC(C(=O)O)(CC1)C3)C2
1040 µg/mL

* * *

assay_details: Solubility measurement in various solvents at 50° C. (Procedure 2)
Assay type: physicochemical
condition_parameters: 1-propanol, organic solvent or mixture
quantity: solubility (µg/mL)
Use µg/mL as the unit, but write only the number.

What value of solubility has been reported for the following molecule? Cl.Cl.Cn1c(C(=O)Nc2cccc(-c3cccc(NC(=O)c4nc5c(n4C)CCN(CCC46CCC(C(=O)O)(CC4)C6)C5)c3Cl)c2Cl)nc2c1CCN(CCC13CCC(C(=O)O)(CC1)C3)C2
1120

* * *

assay_details: Solubility measurement in various solvents at 25° C. (Procedure 1)
Format: physicochemical
condition_parameters: 5% water in acetone, organic solvent or mixture, thermodynamic from solid
quantity: solubility (µg/mL)
Use µg/mL as the unit, but write only the number.

What value of solubility has been reported for the following compound? Cl.Cl.Cn1c(C(=O)Nc2cccc(-c3cccc(NC(=O)c4nc5c(n4C)CCN(CCC46CCC(C(=O)O)(CC4)C6)C5)c3Cl)c2Cl)nc2c1CCN(CCC13CCC(C(=O)O)(CC1)C3)C2
320

* * *

assay_details: Solubility measurement in various solvents at 25° C. (Procedure 1)
Assay type: physicochemical
condition_parameters: thermodynamic from solid, Water, solid phase Form VI
quantity: solubility (mg/mL)
Use mg/mL as the unit, but write only the number.

What value of solubility has been reported for the following molecule? Cl.Cl.Cn1c(C(=O)Nc2cccc(-c3cccc(NC(=O)c4nc5c(n4C)CCN(CCC46CCC(C(=O)O)(CC4)C6)C5)c3Cl)c2Cl)nc2c1CCN(CCC13CCC(C(=O)O)(CC1)C3)C2
12.9
